A compilation of pIC50 values for Indoleamine 2,3-dioxygenase 1 (Homo sapiens, UniProt P14902) from the published literature.
pIC50: −log10 of the molar value.
Outcome: true for pIC50 of at least 5; false for anything lower.

Observe how each entry below is paired with its result.
Cc1cc(C)c(C#N)c(SCC(=O)Nc2ccc(Cl)c(Cl)c2)n1 :: true
O=[N+]([O-])c1ccc(Oc2nsnc2N2CCOCC2)cc1 :: false
Cc1ccc(Cl)cc1N1COc2ccc3ccccc3c2C1 :: false

Query: Does the reported pIC50 for `Cc1cc(C)c(C#N)c(SCC(=O)Nc2sc(C)c(C)c2C#N)n1` fall at or above the 5 mark?
Result: false

Query: Decide: pIC50 of `N#Cc1cnccc1SCC(=O)Nc1ccc(F)cc1` >= 5?
Result: false

Query: Could you please find out whether `CCc1nc(SCC(=O)Nc2sc3c(c2C#N)CCC3)c(C#N)cc1C` has pIC50 that meets 5 or exceeds it?
Result: false

Query: Would you say `Cc1ccc2c(c1CCC(N)=O)C(=O)C(=O)C(C(C)C)=C2` shows pIC50 at minimum 5?
Result: true

Query: Would you say `COC(=O)[C@@H]1N[C@H](c2ccc(Br)cc2)[C@]2(C(=O)Nc3ccccc32)[C@H]1c1ccccc1` shows pIC50 at minimum 5?
Result: false

Query: Form field: pIC50 at least 5? Entry: `N#Cc1ccc(C(F)(F)F)nc1SCC(=O)Nc1ccccc1F`
Result: true

Query: API: above_or_equal(metric=pIC50, cutoff=5) for item `Cc1ccc([N+](=O)[O-])cc1N1COc2ccc3ccccc3c2C1`
Result: false

Query: Confirm if pIC50 reported for the compound `CC(C)c1ccc(C#N)c(SCC(=O)Nc2ccc(F)cc2)n1` is 5 or above.
Result: true

Query: Hello, I need to know if `N#Cc1cc2c(nc1SCC(=O)Nc1ccc(F)cc1)CCCC2` has measured pIC50 not below 5. Thanks!
Result: false

Query: Please indicate if the recorded pIC50 for `N#Cc1c(C(F)(F)F)cc(-c2cccs2)nc1SCC(=O)Nc1ccc(F)cc1` meets or exceeds 5.
Result: false

====

Please find below IC50 measurements for Indoleamine 2,3-dioxygenase 1 (Homo sapiens, UniProt P14902), combined from several publications.
Give the value in µM but do not write µM after it.

Below, each entry is followed by its recorded IC50 result.
Sc1nnc(-c2csc3c2CCCC3)n1Cc1ccccc1 :: 10.4
COc1ccc(C(=O)NC(=S)Nc2c(O)ccc3ccccc23)cc1Br :: 13.7
Cc1cc(C(F)(F)F)nc(SCC(=O)Nc2sc3c(c2C#N)CCC3)c1C#N :: 8.76
N#Cc1ccc(C(F)(F)F)nc1SCC(=O)Nc1ccccc1 :: 9.61
Cc1ccc2c(c1CCC(=O)O)C(=O)C(=O)C(C(C)C)=C2 :: 0.99
O=C(CSc1cccc(C(F)(F)F)n1)Nc1ccc(F)c(Cl)c1 :: 35.7

Now take the following compound into account.
Query: State recorded IC50 with Indoleamine 2,3-dioxygenase 1 (Homo sapiens, UniProt P14902), entry `N#Cc1ccc(C(F)(F)F)nc1SCC(=O)Nc1ccc(F)c(Cl)c1` , no comment.
Result: 0.84
